assay_details: Apparent permeability of the compound in PBS buffer at pH 7.4 incubated for 4 hrs under shaking condition by LC-UV-MS analysis
Assay type: ADME
condition_summary: not told
endpoint_label: Papp at 4 h (×10⁻⁶ cm/s)

compound | endpoint_label | endpoint_result
CC(C)NCC(O)COc1cccc2ccccc12 (configuration not stated) | Papp at 4 h | 17.2
N/C(=N\c1nc2ccccc2s1)N1CCCSc2ccccc21 | Papp at 4 h | 17
